PROTOCOL NOTES: Efflux ratio of apparent permeability in MDCK cells
Type: ADME, cell-based, Canis lupus familiaris
EXPERIMENTAL SETUP: dog
Each entry below lists one item and its recorded efflux ratio value.
Answer with a bare number; do not write a unit.

Brc1ccc(-c2nc3ccc(Br)cn3n2)cc1 :: 2.34

Could you now consider this next compound?
Name the recorded efflux ratio for `[O-][n+]1c(-c2ccc(Br)cc2)nc2ccc(Br)cn21` .
6.2

---

PROTOCOL NOTES: Cytotoxicity against human BEAS-2B cells assessed as reduction in cell viability measured after 72 hrs by MTT assay
Format: toxicity, cell-based
OBSERVABLE: IC50 at 72 h

Name the recorded IC50 at 72 h for `Brc1ccc(-c2nc3ccc(Br)cn3n2)cc1` .
> 300 µM

---

PROTOCOL NOTES: AUC (0 to t) in Sprague-Dawley rat at 5 mg/kg, iv measured up to 24 hrs by LC-MS/MS analysis
Type: ADME, organism-based
Parameters: dose 5 mg/kg, time < 24 hrs, route iv
EXPERIMENTAL SETUP: in vivo
OBSERVABLE: AUC(0-t) at 24 h (ng·h/mL)
The answer is to be given in ng·h/mL; state only the numeric part.

Name the recorded AUC(0-t) at 24 h for `Brc1ccc(-c2nc3ccc(Br)cn3n2)cc1` .
4640

---

TARGET UNDER TEST: Aryl hydrocarbon receptor (Homo sapiens)
Sequence (P35869 whole entry): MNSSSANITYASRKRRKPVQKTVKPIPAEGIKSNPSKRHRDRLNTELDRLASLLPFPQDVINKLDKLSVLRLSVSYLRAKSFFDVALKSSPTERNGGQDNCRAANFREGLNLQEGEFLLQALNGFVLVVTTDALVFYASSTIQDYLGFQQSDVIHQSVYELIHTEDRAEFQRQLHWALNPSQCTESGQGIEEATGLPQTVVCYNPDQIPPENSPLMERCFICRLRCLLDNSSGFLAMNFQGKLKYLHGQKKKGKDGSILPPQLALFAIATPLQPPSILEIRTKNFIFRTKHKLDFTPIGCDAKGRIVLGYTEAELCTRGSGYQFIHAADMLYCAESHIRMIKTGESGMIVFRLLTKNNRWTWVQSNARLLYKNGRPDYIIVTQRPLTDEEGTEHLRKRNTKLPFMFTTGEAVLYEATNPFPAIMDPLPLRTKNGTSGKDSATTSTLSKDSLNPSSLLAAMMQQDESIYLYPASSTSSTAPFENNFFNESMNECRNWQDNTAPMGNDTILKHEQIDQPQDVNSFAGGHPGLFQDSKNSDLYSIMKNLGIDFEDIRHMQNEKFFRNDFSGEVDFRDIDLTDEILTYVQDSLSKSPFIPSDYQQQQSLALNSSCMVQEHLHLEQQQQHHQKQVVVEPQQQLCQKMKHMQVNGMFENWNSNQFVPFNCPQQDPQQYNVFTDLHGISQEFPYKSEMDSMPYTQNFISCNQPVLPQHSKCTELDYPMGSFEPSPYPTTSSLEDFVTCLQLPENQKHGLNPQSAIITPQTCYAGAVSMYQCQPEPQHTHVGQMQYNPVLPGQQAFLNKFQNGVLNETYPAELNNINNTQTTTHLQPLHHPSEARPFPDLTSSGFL
PROTOCOL NOTES: Agonist activity at AhR in human recombinant HepG2-Lucia AhR cell incubated for 24 hrs by luciferase reporter gene assay
Each entry below lists one item and its recorded pEC50 value.
Keep it numeric: pEC50 is minus log10 of the concentration in mol/L.

Answered examples (5):
Fc1ccc2nc(-c3ccc(Br)cc3)nn2c1 :: 6.18
[O-][n+]1c(-c2ccc(Br)cc2)nc2ccc(Cl)cn21 :: 9.47
Clc1ccc2nc(-c3ccc(Br)cc3)nn2c1 :: 6.81
Brc1ccc(-c2nc3ccc(Br)cn3n2)cc1 :: 10.52
Cc1ccc(-c2nc3ccc(Br)cn3n2)cc1 :: 5.72

Name the recorded pEC50 for `Brc1ccc(-c2nc3cccc(Br)n3n2)cc1` .
6.20

Name the recorded pEC50 for `Brc1ccc(-c2nc3cc(Br)ccn3n2)cc1` .
6.20

Name the recorded pEC50 for `[O-][n+]1c(-c2ccc(Br)cc2)nc2ccccn21` .
5.60

Name the recorded pEC50 for `[O-][n+]1c(-c2ccc(Br)cc2)nc2cc(Br)ccn21` .
7.21

Name the recorded pEC50 for `[O-][n+]1c(-c2ccncc2)nc2ccccn21` .
5.33

Name the recorded pEC50 for `[O-][n+]1c(-c2ccc(Br)cc2)nc2c(Br)cccn21` .
6.43

Name the recorded pEC50 for `[O-][n+]1c(-c2ccc(Br)cc2)nc2cccc(Br)n21` .
6.69

Name the recorded pEC50 for `Brc1cccc(-c2nc3ccc(Br)cn3n2)c1` .
8.02

Name the recorded pEC50 for `[O-][n+]1c(-c2ccc(Cl)cc2)nc2ccccn21` .
5.48

Name the recorded pEC50 for `[O-][n+]1c(-c2ccc(Br)cc2)nc2ccc(Br)cn21` .
9.57

Name the recorded pEC50 for `[O-][n+]1c(-c2ccc(Br)cc2)nc2cc(F)ccn21` .
7.08

Name the recorded pEC50 for `[O-][n+]1c(-c2ccc(Br)cc2)nc2ccc(C(F)(F)F)cn21` .
6.12
